Known TGI of a selection of molecules
- Tested on: HL-60(TB) leukemia
- experimental.protocol: NCI tumour cell line growth inhibition, 48 h
measured.attribute: TGI

{"columns": ["molecule", "result"],
 "data": [
  ["CSc1n[nH]c2n[nH]c(C)c12", "> 100 µM"],
  ["COc1ccc(OC)c(-c2cc(C(=O)O)c3cc4ccccc4cc3n2)c1", "> 100 µM"],
  ["CC(=O)OCc1c(C)c2ccccc2n1C(C)=O", "66.9 µM"],
  ["O=C1C(Cl)=C(Nc2ccccn2)C(=O)c2ccccc21", "5.83 µM"],
  ["N#Cc1nc(NC(=O)c2ccccc2)sc1N", "> 10 µM"],
  ["O=C(Nn1c(-c2ccccc2)nc2ccccc2c1=O)c1ccc(O)cc1", "> 100 µM"],
  ["CC(=O)Nc1ccc(S(=O)(=O)c2ccc(NC(C)=O)cc2)cc1", "> 100 µM"],
  ["O=C(Oc1ccc(OC(Oc2ccccc2)c2ccccc2)cc1)c1ccccc1 (stereo not drawn)", "> 31.6 µM"],
  ["Cc1ccc(C)c(N2C(=O)C(=O)c3c(C)ccc(C)c32)c1", "> 100 µM"],
  ["O=c1c2ccccc2n2n1Cc1ccccc1C2", "> 100 µM"],
  ["CCOC(=O)/C(=C/c1ccc(Cl)cc1)N(CC)CC", "> 100 µM"],
  ["Cc1ccc(C(=O)c2[nH]c(Nc3ccc(Cl)cc3)c(C(=S)Nc3ccccc3)c2N)cc1", "> 100 µM"],
  ["N#CC(C#N)=Cc1ccc(Oc2ccccc2)cc1", "55.1 µM"],
  ["O=[N+]([O-])c1cc([N+](=O)[O-])c(C(Cl)C(Cl)c2ccccc2)cc1C(Cl)C(Cl)c1ccccc1 (stereo not drawn)", "> 100 µM"],
  ["Cc1ccc(-c2n[nH]c(=O)n2N2C(=O)C=CC2=O)cc1", "> 100 µM"],
  ["COC(=O)c1c2c(cc3c1CC1(C3)Cc3ccc4c(c3C1=O)CCC4)CCC2 (stereo not drawn)", "> 28.3 µM"],
  ["Nc1ccn(CC(CO)CC(c2ccccc2)P(=O)(O)O)c(=O)n1 (stereo not drawn)", "> 100 µM"],
  ["O=C(O)CP(=O)(c1ccccc1)c1ccccc1.O=C(O)CP(=O)(c1ccccc1)c1ccccc1.[Cd]", "60.7 µM"],
  ["O=C1C2C3CCC(C2C(=O)N1CO)C1C2C(=O)N(CO)C(=O)C2C31 (stereo not drawn)", "31.1 µM"],
  ["COc1ccc(N2C(=O)C3c4[nH]c5cc(Cl)ccc5c4C4CCC(C(C)(C)C)CC4C3C2=O)cc1 (stereo not drawn)", "69.4 µM"],
  ["COC(=O)CCSC1=CC(=O)c2nc3ccccc3c3ccnc1c23", "> 24 µM"],
  ["CSC1CC2C(CC1(C)SC)C2(C)C (stereo not drawn)", "58 µM"],
  ["CC1OC(n2cc(I)c(=O)[nH]c2=O)C=CC1=O (stereo not drawn)", "24.6 µM"]
]}

---

Known TGI of a selection of molecules
- System: HT29 colon
- experimental.protocol: NCI tumour cell line growth inhibition, 48 h
measured.attribute: TGI

{"columns": ["molecule", "result"],
 "data": [
  ["CCCC(=O)[O-].CCCC(=O)[O-].N.N.N.N.[Co+3].[O-][Cl+3]([O-])([O-])[O-]", "> 100 µM"],
  ["COc1ccc(/C(Cl)=C(\\CNc2ccccn2)c2ccccc2)cc1OC", "> 100 µM"],
  ["O=C(Oc1ccc(OC(Oc2ccccc2)c2ccccc2)cc1)c1ccccc1 (stereo unspecified)", "> 31.6 µM"],
  ["CCN1C(=O)C(N=[N+]=[N-])(c2ccccc2)C(=O)c2ccccc21 (stereo unspecified)", "> 100 µM"],
  ["O=C(NCc1cccs1)OC1CC2CCC1C2 (stereo unspecified)", "> 100 µM"],
  ["CC(=O)OCc1c(C)c2ccccc2n1C(C)=O", "> 100 µM"]
]}

---

Known TGI of a selection of compounds
- Tested on: HCT-15 colon
- experimental.protocol: NCI tumour cell line growth inhibition, 48 h

{"columns": ["compound", "sign.qualifier", "TGI / µM"],
 "data": [
  ["N#Cc1nc(NC(=O)c2ccccc2)sc1N", ">", 10],
  ["c1ccc(C2=NN[C@H](c3cn(-c4ccccc4)nc3-c3ccccc3)C2)cc1", ">", 100],
  ["CCC[CH2][Ge]([CH2]CCC)([CH2]CCC)[O]C(=O)C(OC(C)=O)c1ccccc1 (stereo not given)", "=", 14.5],
  ["N#CC(C(=O)C(=O)Nc1ccc(Cl)c(Cl)c1)c1ccc(Cl)cc1 (stereo not given)", ">", 100],
  ["O=[N+]([O-])c1cc(C(F)(F)F)ccc1S(=O)(=O)N[C@@H]1CCCC[C@H]1NS(=O)(=O)c1ccc(C(F)(F)F)cc1[N+](=O)[O-]", "=", 10.1],
  ["Nc1ccn(CC(CO)CC(c2ccccc2)P(=O)(O)O)c(=O)n1 (stereo not given)", ">", 100],
  ["CC1=C2[C@@H](c3ccccc3)C3C=CC2(c2ccccc23)N(C(=O)Nc2cccc3ccccc23)C1=O (stereo not given in full)", ">", 100],
  ["C=CCCC(O)c1ccc(CCCCCCCCCCC)o1 (stereo not given)", "=", 31.5],
  ["OCCN1CCN(c2nc(Nc3ccc(-c4nc5ccccc5[nH]4)cc3)c3cn[nH]c3n2)CC1", "=", 2.5],
  ["NCC(=O)NC(CO)C(=O)O (stereo not given)", ">", 100]
]}

---

- System: SF-539 CNS
- experimental.protocol: NCI tumour cell line growth inhibition, 48 h; in the data active means GI50 below about 0.43 µM; inactive means the rest
Classes used: active, inactive

{"columns": ["molecule", "answer.label"],
 "data": [
  ["COc1cc(CCNc2nc3cc(N)cc(N)c3nc2-c2ccccc2)cc(OC)c1", "inactive"],
  ["O=C(Nc1ccc(O)c(NS(=O)(=O)c2ccc(F)cc2)c1)c1ccc(-c2ccccc2)cc1", "inactive"],
  ["CCNC(=O)c1ccc2c(c1)nc(-c1ccc(Cl)cc1)n2-c1cc(C(C)(C)C)[nH]n1", "inactive"],
  ["[O]=[W](=[O])([OH])[OH]", "inactive"],
  ["C[CH2][Sn]([Cl])([CH2]C)[CH2]C", "inactive"],
  ["Cc1ccc(C(CC(=O)c2ccccc2)C(C(=O)c2ccccc2)C(c2ccc(C)cc2)C2C(=O)NC(=S)NC2=O)cc1 (stereo unspecified)", "inactive"],
  ["Cc1nn(-c2ccccc2)c(C)c1/C=N/N1CCN(Cc2ccccc2)CC1", "inactive"],
  ["N#C/C(=C\\c1ccc([N+](=O)[O-])s1)c1nc2cc(Br)ccc2s1", "active"],
  ["O=C1C(Cl)=C(Nc2ccccn2)C(=O)c2ccccc21", "inactive"],
  ["COc1cc(/C=N/Nc2ncnc3c2cnn3Cc2ccccc2)ccc1O", "inactive"],
  ["CC(C)NCCCCCNc1cc(O)cc2cccnc12", "inactive"]
]}

---

Known log10 of TGI of a selection of compounds
- Tested on: OVCAR-3 ovarian
- experimental.protocol: NCI tumour cell line growth inhibition, 48 h
measured.attribute: log10 of TGI (log10 of the value in µM)

{"columns": ["compound", "numeric.result"],
 "data": [
  ["CC(C)NCCCCCNc1cc(O)cc2cccnc12", 0.97],
  ["C=C(CN(C)C)C(=O)c1ccc(OC)cc1", 1.02],
  ["C/C=C(\\C)C(=O)OC1C2C(C)C(=O)OC2C(O)C(C)C2C=CC(=O)C21C (stereo not given)", 1.37],
  ["N#CC1C(=O)NC2=C(CCOc3c2ccc2ccccc32)C1c1ccc(F)cc1 (stereo not given)", 1.61],
  ["CC1OC(n2cc(I)c(=O)[nH]c2=O)C=CC1=O (stereo not given)", 1.50],
  ["CNc1ccc(C(=O)CC(O)CCC(C)C2OC(=O)CC(O)CC(=O)CC(O)CC(O)CC(O)CC(O)CC3(O)CC(O)C(C(=O)NCCc4ccccn4)C(CC(OC4OC(C)C(O)C(N)C4O)/C=C/C=C/C=C/C=C\\C=C/C=C/C=C/C2C)O3)cc1 (stereo not given)", 0.33],
  ["CCCN(CCC)c1ccc(/C=N/NC(=O)c2cccnc2)cc1", 1.66],
  ["O=C1C(Cl)C(c2cccc(Br)c2)N1c1c(O)c(Cl)cc(Br)c1Cl (stereo not given)", 1.56],
  ["OCCN1CCN(c2nc(Nc3ccc(-c4nc5ccccc5[nH]4)cc3)c3cn[nH]c3n2)CC1", 0.52]
]}
